# D(3) dopamine receptor (Homo sapiens, UniProt P35462): pKi values follow
# Sequence (P35462 whole entry): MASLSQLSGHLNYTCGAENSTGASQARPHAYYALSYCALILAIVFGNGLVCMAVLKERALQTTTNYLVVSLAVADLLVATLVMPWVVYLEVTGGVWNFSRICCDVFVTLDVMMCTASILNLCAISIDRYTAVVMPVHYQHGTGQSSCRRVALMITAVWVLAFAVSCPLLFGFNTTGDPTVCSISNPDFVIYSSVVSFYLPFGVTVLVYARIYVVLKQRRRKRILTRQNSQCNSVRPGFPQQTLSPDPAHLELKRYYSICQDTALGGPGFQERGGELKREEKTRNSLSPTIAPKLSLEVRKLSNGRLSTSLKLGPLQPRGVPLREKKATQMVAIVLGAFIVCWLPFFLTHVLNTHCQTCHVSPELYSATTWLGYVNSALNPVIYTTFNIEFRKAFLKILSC
pKi: −log10 of the molar value.

{"COMPOUND": "N#Cc1ccc2c(c1)C1CN(Cc3ccccc3)CC1CO2 (cis isomer)", "pKi": 7.00}
{"COMPOUND": "N#Cc1ccc2c(c1)[C@H]1CN(CCCCNC(=O)c3ccc(-c4ccccc4)cc3)C[C@@H]1CO2", "pKi": 9.50}
{"COMPOUND": "CC(=O)Nc1ccc(CN2C[C@@H]3COc4ccc(C#N)cc4[C@H]3C2)cc1", "pKi": 8.00}
{"COMPOUND": "N#Cc1ccc2c(c1)[C@H]1CN(CCCCNC(=O)c3ccc(-c4ccc(N)cc4)cc3)C[C@@H]1CO2 (single isomer, unassigned)", "pKi": 9.70}
{"COMPOUND": "COc1ccc2c(c1)OCC1CN(Cc3ccccc3)CC21 (configuration not stated)", "pKi": 7.10}
{"COMPOUND": "N#Cc1ccc2c(c1)[C@@H]1CN(Cc3ccc(F)cc3)C[C@H]1CO2", "pKi": 7.80}
{"COMPOUND": "N#Cc1ccc2c(c1)C1CN(CCCCNC(=O)c3ccc(-c4ccccc4)cc3)CC1CO2 (configuration not stated)", "pKi": 9.10}
